Measured pIC50 values are reported for all entries that follow.
- Test system: HT-29
- Measurement Description: Antiproliferative activity against human HT-29 cells by SRB assay
- Assay type: functional, cell-based
pIC50: −log10 of the molar value.
Parameter: pIC50

>  <Compound>
CC[C@@]1(O)C(=O)OCc2c1cc1n(c2=O)Cc2cc3ccccc3nc2-1

>  <Value Observed>
9.15

$$$$
>  <Compound>
CC(C)[C@@H]1C[C@@]2(C)[C@@H]3CC[C@](C)(NC=O)[C@H]2C[C@@H]31 (relative stereo)

>  <Value Observed>
5.17

$$$$

----------
- Measurement Description: Cytotoxicity against human Gingival fibroblasts at 20 uM by SRB assay
- Set-up: species or system Gingival fibroblast
- Condition: read-out: INH
Parameter: cytotoxicity at 20 µM

>  <Compound>
CC(C)[C@@H]1C[C@@]2(C)[C@@H]3CC[C@](C)(NC=O)[C@H]2C[C@@H]31 (relative stereo)

>  <Parameter>
cytotoxicity at 20 µM

>  <Value Observed>
65%

$$$$
>  <Compound>
CC(C)[C@@H]1C[C@@]2(C)[C@@H]3CC[C@@](C)(C[C@@H]31)[C@@H]2NC=O (relative stereo)

>  <Parameter>
cytotoxicity at 20 µM

>  <Value Observed>
25%

$$$$
